SYSTEM: HA of ca A/Sydney/5/97 (H3N2) (influenza A virus)
TEST METHOD NOTES: cell-based or functional assay
QUANTITY: Neutralization IC50, H3-Syd97 (µg/mL)
Return type: number; implicit unit µg/mL.

Worked examples, 3 binders total:
Antibody 6 (antibody, V domains shown) VH: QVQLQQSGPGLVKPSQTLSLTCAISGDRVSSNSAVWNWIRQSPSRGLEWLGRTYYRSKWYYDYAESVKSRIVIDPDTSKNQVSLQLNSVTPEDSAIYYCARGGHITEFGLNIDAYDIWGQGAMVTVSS VL: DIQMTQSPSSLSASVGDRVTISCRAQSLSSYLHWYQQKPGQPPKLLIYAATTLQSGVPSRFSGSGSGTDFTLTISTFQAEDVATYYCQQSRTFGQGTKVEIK
6.54
Antibody 10 (antibody, V domains shown) VH: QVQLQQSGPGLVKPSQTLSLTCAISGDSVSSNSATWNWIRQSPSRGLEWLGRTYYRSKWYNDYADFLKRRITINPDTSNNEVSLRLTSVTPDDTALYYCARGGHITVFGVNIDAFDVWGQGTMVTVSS VL: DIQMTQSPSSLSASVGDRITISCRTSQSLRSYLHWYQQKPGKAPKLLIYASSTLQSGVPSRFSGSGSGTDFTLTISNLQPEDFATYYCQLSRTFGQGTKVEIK
9.29
Antibody 5 (antibody, V domains shown) VH: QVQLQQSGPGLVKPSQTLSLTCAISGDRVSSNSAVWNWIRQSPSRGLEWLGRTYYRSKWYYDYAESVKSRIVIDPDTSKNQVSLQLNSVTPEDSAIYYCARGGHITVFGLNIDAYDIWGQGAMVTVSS VL: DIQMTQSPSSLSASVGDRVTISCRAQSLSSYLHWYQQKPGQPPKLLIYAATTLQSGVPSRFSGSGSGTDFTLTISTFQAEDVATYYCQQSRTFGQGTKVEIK
3.03

Please examine the following record next.
Neutralization IC50, H3-Syd97 recorded for this binder, Antibody 3 (antibody, V domains shown) VH: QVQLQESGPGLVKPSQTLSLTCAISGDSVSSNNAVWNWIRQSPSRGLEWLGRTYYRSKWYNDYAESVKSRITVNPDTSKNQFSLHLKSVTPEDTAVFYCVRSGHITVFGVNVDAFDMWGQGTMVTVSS VL: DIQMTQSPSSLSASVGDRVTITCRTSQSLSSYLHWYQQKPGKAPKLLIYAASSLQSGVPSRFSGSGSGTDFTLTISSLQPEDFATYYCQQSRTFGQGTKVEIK , is 3.75
